# Test system: HCT116 cells
# testProtocol: Cell cycle of synchronized HCT116 cells by flow cytometry (FACS)
# Format: cell-based, human
# assaySetup: HCT116 cells, ≈1.5 × IC50, 24 h
propertyLabel: type of cell cycle arrest caused

The cases that follow already have their type of cell cycle arrest caused on record.
COc1cccc(/C=C2/C(=O)Nc3cc(OC)ccc32)c1 G2 arrest
COc1ccc2c(c1)NC(=O)/C2=C/c1ccc(OC)c(O)c1 G2 arrest
O=C1Nc2cc(Cl)ccc2/C1=C\c1cccc(C(F)(F)F)c1 G1 arrest
O=C1Nc2cc(F)ccc2/C1=C\c1cccc(C(F)(F)F)c1 G1 arrest

In the following, a different compound is considered.
Q: Item under review: COc1ccc2c(c1)NC(=O)/C2=C/c1cccc(C(F)(F)F)c1 . Reported type of cell cycle arrest caused?
A: G2 arrest

----------
# Test system: HuH7
# testProtocol: cells
# Format: cell-based, human
# assaySetup: Homo sapiens, Huh-7; 10 μM, 72 h, vs vehicle-treated controls; read-out: Percentage viability HuH7
Binary label based on viability at 10 µM with cut-off 30%: below gives Yes, not below gives No.

compound	answerLabel
COc1ccc2c(c1)NC(=O)/C2=C/c1ccc(OC)c(O)c1 [Compound 45]	No

Q: Strictly below 30%: is that where viability at 10 µM of COc1ccc(/C=C2/C(=O)Nc3cc(F)ccc32)cc1O [Compound 43] sits?
A: No

Q: Likewise for COc1ccc2c(c1)NC(=O)/C2=C/c1cccc(C(F)(F)F)c1 [Compound 48] ?
A: Yes

Q: Likewise for COc1cccc(/C=C2/C(=O)Nc3cc(Cl)ccc32)c1 [Compound 41] ?
A: No

Q: Likewise for COc1ccc(/C=C2/C(=O)Nc3cc(Cl)ccc32)cc1O [Compound 44] ?
A: No

Q: Likewise for O=C1Nc2cc(Cl)ccc2/C1=C\c1cccc(C(F)(F)F)c1 [Compound 47] ?
A: Yes

Q: Likewise for COc1cccc(/C=C2/C(=O)Nc3cc(F)ccc32)c1 [Compound 39] ?
A: No

Q: Likewise for COc1cccc(/C=C2/C(=O)Nc3ccc(Cl)cc32)c1 [Compound 40] ?
A: No

----------
# System: CYP1A1
# testProtocol: 7-ethoxyresorufin O-deethylase (EROD) assay, CYP1A1 induction in Hepa1c1c7 cells
# Format: cell-based, murine
# assaySetup: 1 μM, 48 h
propertyLabel: CYP1A1 induction ratio
Write the value as a bare number.

The cases that follow already have their CYP1A1 induction ratio on record.
compound	CYP1A1 induction ratio
C[S+]([O-])CCCCN=C=S (stereo not shown) [sulforaphane, reference compound]	0.924
COc1ccc(/C=C2/C(=O)Nc3cc(Cl)ccc32)cc1O [Compound 44]	2.33
COc1ccc2c(c1)NC(=O)/C2=C/c1ccc(OC)c(O)c1 [Compound 45]	1.05

In the following, a different compound is considered.
Q: Item under review: COc1cccc(/C=C2/C(=O)Nc3cc(F)ccc32)c1 [Compound 39] . Reported CYP1A1 induction ratio?
A: 1.25

----------
# Test system: HepG2
# testProtocol: cells
# Type: cell-based, human
# assaySetup: Homo sapiens, HepG2; viability (intracellular ATP, Cell Titer-Glo), 72 h, 0.1 to 10 μM; read-out: IC50 HepG2
# Description: Cells were plated at 5000-7000 cells/per well and incubated for 24 h before treatment. […] Cell Titer-Glo (Promega, Madison, Wis.) assay was performed according to manufacturer's instruction with luminescence detected on SpectraMax M5 (Molecular Devices, Sunnyvale, Calif.). Data was expressed as percentage of viability vs. vehicle-treated controls. […] Cell viability assay shown in FIG. 2 was analyzed by Prism5 for the determination of respective IC50 values. […]
propertyLabel: pIC50
# log scale: pIC50 equals minus log10 of the concentration in mol/L

Q: Item under review: CCN(CC)CCNC(=O)c1c(C)[nH]c(/C=C2\C(=O)Nc3ccc(F)cc32)c1C [Sunitinib, reference compound] . Reported pIC50?
A: 5.35
